All values here come from ChEMBL document CHEMBL4265985.

# run_description: Volume of distribution at steady state in Sprague-Dawley rat at 2 mg/kg, iv administered as single dose by LC-MS analysis
# Assay type: ADME, organism-based
# cond: in vivo, read-out: Vdss
assay_endpoint: Vd (L/kg)
# number only, unit L/kg dropped from output

## Input Param item = `Cc1cc(O)c([C@@H]2O[C@H](CO)[C@@H](O)[C@H](O)[C@H]2O)cc1Cc1ccc(CCNC(=O)NC(CO)(CO)CO)cc1` ; retrieve measured Vd.
## Output 0.439

----------
# run_description: Total clearance in Sprague-Dawley rat at 2 mg/kg, iv administered as single dose by LC-MS analysis
# Format: ADME, organism-based
# cond: in vivo
assay_endpoint: clearance (mL/min/kg)
# number only, unit mL/min/kg dropped from output

## Input Param item = `Cc1cc(O)c([C@@H]2O[C@H](CO)[C@@H](O)[C@H](O)[C@H]2O)cc1Cc1ccc(CCNC(=O)NC(CO)(CO)CO)cc1` ; retrieve measured clearance.
## Output 18
